Assay Target: Activin receptor type-1B (Homo sapiens) (UniProt P36896)
Sequence (P36896 whole entry): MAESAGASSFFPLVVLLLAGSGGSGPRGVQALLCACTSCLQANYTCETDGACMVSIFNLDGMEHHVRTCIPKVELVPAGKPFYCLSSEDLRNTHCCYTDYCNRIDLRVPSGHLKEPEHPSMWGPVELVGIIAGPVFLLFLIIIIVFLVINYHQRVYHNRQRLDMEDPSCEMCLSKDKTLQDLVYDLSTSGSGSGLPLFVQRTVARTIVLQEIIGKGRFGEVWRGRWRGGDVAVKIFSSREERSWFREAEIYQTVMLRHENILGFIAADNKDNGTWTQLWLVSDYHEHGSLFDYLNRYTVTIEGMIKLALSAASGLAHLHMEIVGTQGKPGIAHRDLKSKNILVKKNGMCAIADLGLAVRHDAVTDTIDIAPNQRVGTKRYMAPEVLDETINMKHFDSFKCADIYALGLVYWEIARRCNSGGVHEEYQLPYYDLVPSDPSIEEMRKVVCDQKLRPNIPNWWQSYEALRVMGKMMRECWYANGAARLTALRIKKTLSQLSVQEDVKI
Test Protocol: Inhibition of ALK4 expressed in baculovirus/Sf9 cells assessed as inhibition of receptor autophosphorylation at 0.1 uM after 3 hrs
Measurement Type: inhibition (%)

Below, 5 compounds whose answers are already recorded.
[[record]]
entry_smiles = "Cc1cccc(-n2nc(-c3ccc(C(N)=O)cc3)cc2-c2ccc3c(c2)OCO3)n1"
scale_unit = "%"
value_observed = 39.4

[[record]]
entry_smiles = "Cc1cccc(-c2nc(-c3ccc(C#N)cc3)cn2-c2ccc3c(c2)OCO3)n1"
scale_unit = "%"
value_observed = 45.5

[[record]]
entry_smiles = "N#Cc1ccc(-c2cn(-c3ccc4c(c3)OCO4)c(-c3ccccc3F)n2)cc1"
scale_unit = "%"
value_observed = 13.3

[[record]]
entry_smiles = "Cc1cccc(-c2nc(-c3ccc(C(N)=O)cc3)cn2-c2ccc3c(c2)OCO3)n1"
scale_unit = "%"
value_observed = 15.6

[[record]]
entry_smiles = "Cc1cccc(-n2nc(-c3ccc(C#N)cc3)cc2-c2ccc3c(c2)OCO3)n1"
scale_unit = "%"
value_observed = 53.6


a: NC(=O)c1ccc(-c2cn(-c3ccc4c(c3)OCO4)c(-c3ccccn3)n2)cc1
b: NC(=O)c1ccc(-c2cc(-c3ccc4c(c3)OCO4)n(-c3ccccc3F)n2)cc1
Task for the reader: decide whether a or b has the larger inhibition. Bench note: the answer is the label of the chosen record.
a

P: NC(=O)c1ccc(-c2cc(-c3ccc(O)c(O)c3)n(-c3ccccc3O)n2)cc1
Q: Cc1cccc(-c2nc(-c3ccc(C(N)=O)cc3)cn2-c2ccc3c(c2)OCCO3)n1
Hi, I'm comparing P with Q and wondering which one has the bigger number for inhibition. Any idea? Indicate your choice by writing its label.
P

----------
Assay Target: Activin receptor type-1C (Homo sapiens) (UniProt Q8NER5)
Sequence (whole entry): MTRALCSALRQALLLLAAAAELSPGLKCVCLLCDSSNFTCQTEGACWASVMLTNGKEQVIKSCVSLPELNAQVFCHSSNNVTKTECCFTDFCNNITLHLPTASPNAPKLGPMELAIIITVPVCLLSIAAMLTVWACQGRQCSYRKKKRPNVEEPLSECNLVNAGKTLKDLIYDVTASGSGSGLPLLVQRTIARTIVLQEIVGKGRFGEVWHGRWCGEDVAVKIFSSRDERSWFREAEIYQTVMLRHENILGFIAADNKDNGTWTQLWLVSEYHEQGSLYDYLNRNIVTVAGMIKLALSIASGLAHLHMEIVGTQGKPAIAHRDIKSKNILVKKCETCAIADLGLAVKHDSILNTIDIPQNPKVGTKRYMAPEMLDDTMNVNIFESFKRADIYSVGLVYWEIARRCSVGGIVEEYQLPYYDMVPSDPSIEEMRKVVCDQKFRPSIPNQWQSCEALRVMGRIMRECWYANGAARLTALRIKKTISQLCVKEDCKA
Test Protocol: Inhibition of ALK7 expressed in baculovirus/Sf9 cells assessed as inhibition of receptor autophosphorylation at 1 uM after 3 hrs
Measurement Type: inhibition (%)

[[record]]
entry_smiles = "N#Cc1ccc(-c2cn(-c3ccc4c(c3)OCO4)c(-c3ccccc3F)n2)cc1"
value_observed = 63.6

[[record]]
entry_smiles = "Cc1cccc(-n2nc(-c3ccc(C#N)cc3)cc2-c2ccc3c(c2)OCO3)n1"
value_observed = 73.4

[[record]]
entry_smiles = "Cc1cccc(-c2nc(-c3ccc(C#N)cc3)cn2-c2ccc3c(c2)OCO3)n1"
value_observed = 44.6

[[record]]
entry_smiles = "COc1ccc(-c2cc(-c3ccc(C(N)=O)cc3)nn2-c2ccccc2F)cc1OC"
value_observed = 65.8

[[record]]
entry_smiles = "NC(=O)c1ccc(-c2cn(-c3ccc4c(c3)OCO4)c(-c3ccccn3)n2)cc1"
value_observed = 54.8

[[record]]
entry_smiles = "NC(=O)c1ccc(-c2cc(-c3ccc(O)c(O)c3)n(-c3ccccc3O)n2)cc1"
value_observed = 56.5

[[record]]
entry_smiles = "NC(=O)c1ccc(-c2cc(-c3ccccc3F)n(-c3ccc4c(c3)OCO4)n2)cc1"
value_observed = 57.4

